Target: IL-17RA (WT) (Homo sapiens, UniProt Q96F46)
Sequence (Q96F46 33-320 limits assumed): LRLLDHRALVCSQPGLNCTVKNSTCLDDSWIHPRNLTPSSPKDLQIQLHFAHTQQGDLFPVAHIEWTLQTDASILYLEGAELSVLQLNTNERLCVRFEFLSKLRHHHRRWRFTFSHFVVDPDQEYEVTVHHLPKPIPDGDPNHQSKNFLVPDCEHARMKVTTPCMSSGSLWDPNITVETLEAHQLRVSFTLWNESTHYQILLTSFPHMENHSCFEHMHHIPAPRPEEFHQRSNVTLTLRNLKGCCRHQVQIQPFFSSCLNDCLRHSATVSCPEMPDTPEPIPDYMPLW
pKd: −log10 of the molar value.
measuredEndpoint: pKd

Problem: Record Oc1cc(O)c2cc(O)c(-c3ccc(O)c(O)c3)[o+]c2c1.[Cl-] : what is its pKd with IL-17RA (WT) (Homo sapiens, UniProt Q96F46)?
Solution: ~5.52
